system: Escherichia coli ATCC25922; experiment: Antibiofilm assay (crystal violet), MBIC; assay type: cell-based; conditions: 24 h, 37 °C
MEASUREMENT TYPE: Minimum biofilm inhibition concentration (MBIC), Escherichia coli ATCC25922 (µg/mL)
Give bare numbers, in µg/mL.

Worked cases, Minimum biofilm inhibition concentration (MBIC), Escherichia coli ATCC25922 given:
Data request: Entry `Cc1nn(CN(Cn2nc(C)c([N+](=O)[O-])c2C)c2ccc(F)cc2)c(C)c1[N+](=O)[O-]` , system Escherichia coli ATCC25922: what Minimum biofilm inhibition concentration (MBIC), Escherichia coli ATCC25922 was measured?
Data returned: 460

Data request: Same lookup for `Cc1nn(CNc2ccccc2Cl)c(C)c1[N+](=O)[O-]` , please.
Data returned: 460

Data request: Same lookup for `Cc1nn(CN(Cn2nc(C)c([N+](=O)[O-])c2C)c2ccc(Br)cc2)c(C)c1[N+](=O)[O-]` , please.
Data returned: 3750

Further cases:
Data request: Entry `Cc1nn(CN(Cn2nc(C)c([N+](=O)[O-])c2C)c2ccc(Cl)cc2)c(C)c1[N+](=O)[O-]` , system Escherichia coli ATCC25922: what Minimum biofilm inhibition concentration (MBIC), Escherichia coli ATCC25922 was measured?
Data returned: 460

* * *

Record form. Attribute: viability at 6.25 µg/mL. Fill in for each entry.
test system: HEp-2 epithelial tumor cells; experiment: MTT cell viability / anti-tumor activity; conditions: Homo sapiens, HEp-2, 24 h, read-out: Cell viability on Hep2 cells (%)
Answers are plain numbers, in %.

Worked cases, viability at 6.25 µg/mL given:
Data request: Entry `Cc1nn(CNc2ccc(Br)cc2)c(C)c1[N+](=O)[O-]` has what viability at 6.25 µg/mL?
Data returned: 103

Data request: Same lookup for `Cc1nn(CNc2ccc(I)cc2)c(C)c1[N+](=O)[O-]` , please.
Data returned: 110

Data request: Same lookup for `Cc1nn(CN(Cn2nc(C)c([N+](=O)[O-])c2C)c2ccc(Br)cc2)c(C)c1[N+](=O)[O-]` , please.
Data returned: 114

Data request: Same lookup for `Cc1nn(CNc2ccc(F)cc2)c(C)c1[N+](=O)[O-]` , please.
Data returned: 94.4

Data request: Same lookup for `Cc1nn(CNc2cccc(Cl)c2)c(C)c1[N+](=O)[O-]` , please.
Data returned: 104

Data request: Same lookup for `Cc1nn(CNc2ccc(Cl)cc2)c(C)c1[N+](=O)[O-]` , please.
Data returned: 105

Data request: Same lookup for `Cc1nn(CN(Cn2nc(C)c([N+](=O)[O-])c2C)c2ccc(I)cc2)c(C)c1[N+](=O)[O-]` , please.
Data returned: 89.2

Data request: Same lookup for `Cc1nn(CN(Cn2nc(C)c([N+](=O)[O-])c2C)c2cccc(Cl)c2)c(C)c1[N+](=O)[O-]` , please.
Data returned: 102

Data request: Same lookup for `Cc1nn(CN(Cn2nc(C)c([N+](=O)[O-])c2C)c2ccc(Cl)cc2)c(C)c1[N+](=O)[O-]` , please.
Data returned: 104

Data request: Same lookup for `Cc1nn(CN(Cn2nc(C)c([N+](=O)[O-])c2C)c2ccc(F)cc2)c(C)c1[N+](=O)[O-]` , please.
Data returned: 104

Report viability at 6.25 µg/mL for each item below.
1. C[C@@H]1CC[C@@]2(OC1)O[C@H]1C[C@H]3[C@@H]4CC=C5C[C@@H](O[C@@H]6O[C@H](CO)[C@@H](O[C@@H]7O[C@@H](C)[C@H](O)[C@@H](O)[C@H]7O)[C@H](O)[C@H]6O[C@@H]6O[C@@H](C)[C@H](O)[C@@H](O)[C@H]6O)CC[C@]5(C)[C@H]4CC[C@]3(C)[C@H]1[C@@H]2C [dioscin, reference compound]
2. Cc1nn(CNc2ccccc2Cl)c(C)c1[N+](=O)[O-]

Data returned:
76.7
98.6
